Cited source for all entries: PubChem BioAssay (NCATS)

Assay: Primary fluorescence-based thiol-reactive (MSTI) qHTS assay for identification of artifact compounds. (AID 1845221); further: nearly all actives have a fitted effect of over 65% in size
Conditions: MSTI thiol-reactivity probe, 1 h; series mostly up to 53.8 µM
Inconclusive results are not listed. Active and inactive are the calls of the source. The call rests on the fitted dose curve; in most records, active means well fitted inhibition curve with a large enough effect; inconclusive means small, poorly fitted or top-dose-only effect; inactive means no such curve, though single readings can be large or run the other way.
Answer with one of the outcomes given here: active, inactive

Recorded test call requested for "O=C(NCCCN1CCC2(CC1)OCc1ccccc12)[C@H]1CCCN1Cc1ccccc1" inactive

Recorded test call requested for "CCCCCCCOc1cc2c(cc1/C(C)=C/c1ccc(C(=O)O)cc1)C(C)(C)CCS2(=O)=O" inactive

Recorded test call requested for "CCCCCCCCn1cc(CN(CC)CC)c2cc(-c3cnc(N)nc3)ccc21" inactive

Recorded test call requested for "C=C[C@]1(C)C[C@H](O)[C@H]2C(=C)C(=O)O[C@@H]2[C@H]1C(=C)CO" inactive

Recorded test call requested for "c1cc(NCCc2c[nH]c3ccccc23)cc(Nc2ccncc2)c1" active

Recorded test call requested for "COc1cc(C(C)C)c(Oc2cnc(N)nc2N)cc1I" inactive

Recorded test call requested for Nc1nc(Cl)nc2c1ncn2C1OC(CO)C(O)C1F (stereo unspecified) inactive

Recorded test call requested for "COc1ccc(CCN(C)CCCOc2nsc(-c3ccccc3)n2)cc1OC" inactive

Recorded test call requested for "COCCN(C(=O)c1cc(OC)c(OC)c(OC)c1)c1nc(-c2ccccc2)cs1" inactive

Recorded test call requested for "O=c1cc(N2CCOCC2)nc2c3ccccc3ccn12" inactive

Recorded test call requested for "CC(C)S(=O)(=O)Nc1ccc(F)c(C(=O)c2c[nH]c3ncc(-c4cccnc4)cc23)c1F" inactive

* * *

System: Tov-21-G
Assay: Primary qHTS to identify gynecologic anti-cancer compounds using libraries of approved drugs and bioactive compounds (AID 1345084); further: nearly all actives have a fitted effect of over 55% in size
Settings: Gynecologic cancer cell panel viability, ATPlite luminescence, 48 h; series mostly up to 57.5 µM
Records with an inconclusive call do not appear. The source made the active and inactive calls. Calls come from the whole dose curve; as a rule, active = well fitted cell-killing curve with a large enough effect; inconclusive = small, poorly fitted or top-dose-only effect, or effect the other way; inactive = flat fitted curve, though single readings scatter.
Answer with one of the outcomes given here: active, inactive

Recorded test call requested for "CC(=O)Nc1cccc(-c2csc(Nc3cc(C)ccn3)n2)c1" inactive

Recorded test call requested for C=CCc1ccc(OC(C)Cc2ccc(OC)c(OC)c2)c(OC)c1 (centres undefined) inactive

Recorded test call requested for "CCCc1ccc(OCC(=O)N(Cc2nc(-c3cccnc3)no2)C(C)C)cc1" inactive

Recorded test call requested for "CC(=O)C1=C(O)C=C2Oc3c(C(C)=O)c(O)c(C)c(O)c3[C@]2(C)C1=O" inactive

Recorded test call requested for "CCOC(=O)C1=Cc2ccc(C(F)(F)C(F)(F)F)cc2N=C(N)C1" inactive

Recorded test call requested for C=C1C(=O)O[C@@H]2[C@H]1CC(=O)[C@H](C)[C@@](O)(C(=O)/C=C/C)[C@H]2OC(=O)C(C)CC (some centres undefined) active

Recorded test call requested for "Cn1cc(C2=C(c3coc4ccccc34)C(=O)NC2=O)c2cc(Br)ccc21" inactive

Recorded test call requested for COc1ccccc1N1CCN(CC(C(=O)NC(C)(C)C)c2ccccc2)CC1 (centres undefined) inactive

Recorded test call requested for "CC(C)(C)Sc1c(CC(C)(C)C(=O)O)n(Cc2ccc(Cl)cc2)c2ccc(OCc3ccc4ccccc4n3)cc12" inactive

Recorded test call requested for C=C1CC[C@@H]2[C@](C)(CO)[C@H](O)CC[C@@]2(C)[C@@H]1CC(O)C1=CCOC1=O (some centres undefined) inactive

Recorded test call requested for Cc1cc2c(F)c(Oc3ncnn4cc(OCC(C)OC(=O)C(C)N)c(C)c34)ccc2[nH]1 (centres undefined) inactive

Recorded test call requested for "C[C@]12CC[C@@H]3c4ccc(O)c(O)c4CC[C@H]3[C@@H]1CCC2=O" inactive

Recorded test call requested for "O=C(N[C@H]1CCN(C(=O)c2cc(C(F)(F)F)cc(C(F)(F)F)c2)[C@H](Cc2ccc(Cl)cc2)C1)c1ccnc2ccccc12" inactive

Recorded test call requested for "CCCCOC(=O)NS(=O)(=O)c1sc(CC(C)C)cc1-c1ccc(Cn2ccnc2)cc1" inactive

Recorded test call requested for CO[C@@H]1[C@H](O)CCC2(CO2)[C@H]1[C@@]1(C)O[C@@H]1CC=C(C)C (some centres undefined) inactive

Recorded test call requested for NC(=O)N1CCC(CC(=O)N2CCC(C3c4ncc(Br)cc4CCc4cc(Cl)cc(Br)c43)CC2)CC1 (centres undefined) inactive

Recorded test call requested for "C=C1C(=O)O[C@@H]2[C@H]1CCC(C)=C(CCC(=O)O)[C@@]2(C)O" inactive

Recorded test call requested for "CC(C)(O)c1ccc2c(c1)ncn2-c1cccc(-c2ccccc2C#N)c1" inactive

Recorded test call requested for CC(=O)NC(C(=O)O[C@H]1CCC(C)(C)[C@@H]2CC=C3C(=O)OCC3(O)[C@@]12C)C(C)C (some centres undefined) inactive

Recorded test call requested for "Cc1ccc(-c2c(C(=O)CCl)n(CCCO)c3ncnc(N)c23)cc1" inactive

Recorded test call requested for "Nc1nc2c(cnn2CCCc2ccc(O)cc2)c2nc(-c3ccco3)nn12" inactive

Recorded test call requested for "O=c1[nH]cnc2c([C@@H]3N[C@H](CO)[C@@H](O)[C@H]3O)c[nH]c12" inactive

Recorded test call requested for C=C(C)C(=O)O[C@H]1C[C@@](C)(O)C2(O)CCC(C)(/C=C3/OC(=O)C(COC)=C31)O2 (some centres undefined) active

Recorded test call requested for "CCc1c[nH]c2ncnc(N3CC[C@](N)(CNC(=O)c4ccc(F)cc4F)C3)c12" active

Recorded test call requested for "N#Cc1cc(C2=Nc3ccc(Br)cc3NC(=O)C2)ccn1" inactive

Recorded test call requested for COC(=O)c1cc(Br)cnc1N1CCC(NC2CCCCC2)C(O)C1 (centres undefined) inactive

Recorded test call requested for "O=C(Nc1ccc(CN2CCOCC2)cc1)c1ccc(-c2cccc(Cl)c2)o1" inactive

Recorded test call requested for "CCn1c(=O)n([C@H]2CCCN(c3nccc(-c4cc5ccccc5o4)n3)C2)c2ccccc21" inactive

Recorded test call requested for "CCC(=C(c1ccc(OCCN2CCCC2)cc1)c1ccc(OCCN2CCCC2)cc1)c1ccccc1" inactive

Recorded test call requested for "Cn1ncc(Cl)c1-c1cc(C(=O)N[C@H](CN)Cc2ccc(F)c(F)c2)sc1Cl" active

Recorded test call requested for "Clc1ccc(Cn2c(Cc3ccccc3)nc3ccccc32)cc1" inactive

Recorded test call requested for "Cc1cccc(-c2[nH]ncc2-c2ccnc3ccccc23)n1" inactive

Recorded test call requested for "Nc1c(S(=O)(=O)c2ccccc2)c2nc3ccccc3nc2n1-c1ccc(F)cc1" inactive

Recorded test call requested for "COc1ccc(OC)c(-c2ccc(NC(=O)c3ccncc3F)cc2)c1" inactive

Recorded test call requested for CCO[C@H]1CN(C2CCC(O)(c3ccc4c(c3)OCO4)CC2)C[C@@H]1NC(=O)CNC(=O)c1cccc(C(F)(F)F)c1 (some centres undefined) inactive

Recorded test call requested for "COc1cc(C(=O)NCC2(N(C)C)CCCC2)cc(OC)c1OCc1ccccc1" inactive

Recorded test call requested for "O=S(=O)(Nc1cc(Cl)c(Oc2cnc3ccccc3c2)c(Cl)c1)c1ccc(Cl)cc1Cl" inactive

Recorded test call requested for CC1=CC2/C=C(\C)CCC(O)C(=O)C(O)CC(=O)C23C(=O)NC(CC(C)C)C3C1C (centres undefined) inactive

Recorded test call requested for "Cc1nc(N2CCN(C(=O)c3ccco3)CC2)c2c3c(sc2n1)CCCC3" inactive

* * *

System: PA-1
Experiment: Primary qHTS to identify gynecologic anti-cancer compounds using libraries of approved drugs and bioactive compounds (AID 1345084); further: nearly all actives have a fitted effect of over 55% in size
Details: Gynecologic cancer cell panel viability, ATPlite luminescence, 48 h; series mostly up to 57.5 µM
From the text: National Center for Advancing Translational Sciences [NCATS] Assay Overview: Chemotherapeutic drug responses vary from cancer to cancer and from patient to patient. […] ATPlite is a luminescence based assay reliant on the conversion of a luciferase substrate to light in the presence of ATP. As a cytotoxic compound will suppress growth and decrease the number of cells, the concentration of ATP will decrease, and less light signal will be detected in the well. […]
Records with an inconclusive call do not appear. Active and inactive are the calls of the source. Calls come from the whole dose curve; as a rule, active = well fitted cell-killing curve with a large enough effect; inconclusive = small, poorly fitted or top-dose-only effect, or effect the other way; inactive = flat fitted curve, though single readings scatter.
Answer with one of the outcomes given here: label 1 for active, label 0 for inactive

Recorded test call requested for "Fc1ccc(CN2CCC(Nc3ccc(C(F)(F)F)nn3)CC2)cc1F" label 0

Recorded test call requested for "CCC/C=C\C=C/CCc1cc(O)c([C@@H]2O[C@H](CO)[C@@H](O)[C@H](O)[C@H]2O)c(O)c1C(=O)OC" label 0

Recorded test call requested for "CN(C)C(=O)Nc1cccc(-c2ccc(N(C)C)cc2)c1" label 0

Recorded test call requested for CC1(C)CCCC2(C)C1C(OC(=O)/C=C/C=C/C=O)C=C1COC(=O)C12O (stereo not drawn) label 0

Recorded test call requested for "CC(=O)NC[C@H]1CN(c2ccc(N3CCSCC3)c(F)c2)C(=O)O1" label 0

Recorded test call requested for "CNCCN1CCC(c2cc(CN(C)C(=O)c3cccc(Oc4ccccc4)c3)ccn2)CC1" label 0

Recorded test call requested for "COc1ccc([C@H]2OC[C@H]3O[C@@H](O[C@H]4[C@@H]2NC[C@@H]4O)[C@H](O)[C@H]3O)cc1" label 1

Recorded test call requested for "Cc1cc(C)cc(-c2cnc3cc(Cl)c(-c4cccc(O)c4)cc3c2OCCCN)c1" label 0

Recorded test call requested for CC[C@@H](C)Nc1cc(C(=O)NC2CC3CCC(C2)N3c2ccc(C(=O)C3CC3)cn2)c(C)cc1C(N)=O (stereo partly drawn) label 1

Recorded test call requested for C=C(C)C(=O)O[C@H]1C[C@@](C)(O)C2(O)CCC(C)(/C=C3/OC(=O)C(COC)=C31)O2 (stereo partly drawn) label 1

Recorded test call requested for CC(=O)C=C=C1C(C)(C)CC(O)CC1(C)O[C@@H]1O[C@H](CO[C@H]2OC[C@](O)(CO)[C@H]2O)[C@@H](O)[C@H](O)[C@H]1O (stereo partly drawn) label 0

Recorded test call requested for O=C(Nc1ccc(Cl)cc1)C1CCCN(C(=O)c2cccc(-c3ccco3)c2)C1 (stereo not drawn) label 0

Recorded test call requested for "COc1cc2c(c(OC)c1CC=C(C)C)C[C@H](c1ccc(O)c(CC=C(C)C)c1O)CO2" label 0

Recorded test call requested for "CCc1cnc(N2CCC(c3nc(COc4ccc(-n5cnnn5)cc4)cs3)CC2)nc1" label 0

Recorded test call requested for "CCC(=O)N1CCOc2c(cc(-c3ccc(OC)c(OC)c3)cc2OC[C@H]2CCCN(C)C2)C1" label 0

Recorded test call requested for "O=C(NCc1nc2ccccc2c(=O)n1-c1ccc(F)cc1)Nc1ccc(Cl)c(C(F)(F)F)c1" label 0

Recorded test call requested for "COc1cc(NC(=O)c2cc(C3CC3)on2)c(OC)cc1Cl" label 0

Recorded test call requested for "N[C@@H]1c2cccnc2[C@H](OC(=O)N2CCC(n3c(=O)[nH]c4ncccc43)CC2)CC[C@H]1c1cccc(F)c1F" label 0
